Hey, just so you know, these numbers are from paper PMC12221113.

target: KLK1 (Homo sapiens, UniProt P06870); experiment: KLK1 fluorogenic enzyme inhibition assay (H-PFR-AMC); conditions: read-out: Pseudo-IC50 of Fe3+ on KLK1; Figure S4 A, curve fit y=(100*M0)/(M0+M2)
Sequence (P06870 25-262): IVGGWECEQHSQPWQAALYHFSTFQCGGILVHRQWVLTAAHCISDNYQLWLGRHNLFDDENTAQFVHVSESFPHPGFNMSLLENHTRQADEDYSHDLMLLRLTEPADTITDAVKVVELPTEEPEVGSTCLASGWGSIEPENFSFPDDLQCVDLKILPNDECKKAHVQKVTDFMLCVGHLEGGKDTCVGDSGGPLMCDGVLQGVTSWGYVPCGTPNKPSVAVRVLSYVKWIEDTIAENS
parameter_measured: pIC50
Please keep in mind that pIC50 is minus log10 of the molar concentration; only the number is needed.

Measured pIC50 for this entry [Cl][Fe]([Cl])[Cl] [Fe3+] on KLK1 (Homo sapiens, UniProt P06870): 3.01

###

experiment: Calcein transchelation (calcein release) assay; assay type: physicochemical; settings: calcein 100 nM, 4 h at room temperature; estimation, assay not fully quantitative; read-out: Apparent affinity (pseudo‐affinity constant Kd for Fe3+)
parameter_measured: Kd (nM)
Number only, in nM; omit the unit.

Item: O=C(O)c1ccc(-n2nc(-c3ccccc3O)nc2-c2ccccc2O)cc1 | Kd: 0.549

Item: Oc1ccc(-n2nc(-c3ccccc3O)nc2-c2ccccc2O)cc1 | Kd: 0.062

Item: O=C(O)C1CCCN1C(=O)c1ccc(-n2nc(-c3ccccc3O)nc2-c2ccccc2O)cc1 (stereo not shown) | Kd: 0.029

Item: COC(=O)CNC(=O)c1ccc(-n2nc(-c3ccccc3O)nc2-c2ccccc2O)cc1 | Kd: 0.175

Item: COC(=O)C(Cc1c[nH]c2ccccc12)NC(=O)c1ccc(-n2nc(-c3ccccc3O)nc2-c2ccccc2O)cc1 (stereo not shown) | Kd: 0.13

Item: O=C(O)CNC(=O)c1ccc(-n2nc(-c3ccccc3O)nc2-c2ccccc2O)cc1 | Kd: 0.078

Item: COC(=O)C1CCCN1C(=O)c1ccc(-n2nc(-c3ccccc3O)nc2-c2ccccc2O)cc1 (stereo not shown) | Kd: 0.105

Item: O=C(c1ccccc1)n1nc(-c2ccccc2O)nc1-c1ccccc1O | Kd: 0.41

Item: O=C(O)Cn1nc(-c2ccccc2O)nc1-c1ccccc1O | Kd: 0.22

Item: COc1ccc(-c2nc(-c3ccccc3O)nn2-c2ccc(C(=O)O)cc2)c(O)c1 | Kd: 0.077

Item: O=S(=O)(O)c1ccc(-n2nc(-c3ccccc3O)nc2-c2ccccc2O)cc1 | Kd: 0.165

Item: CC(C)(C)n1nc(-c2ccccc2O)nc1-c1ccccc1O | Kd: 2.15

Item: NC(=O)c1ccc(-n2nc(-c3ccccc3O)nc2-c2ccccc2O)cc1 | Kd: 0.093

Item: Oc1ccccc1-c1nc(-c2ccccc2O)n(-c2ccccc2)n1 | Kd: 0.081

Item: O=C(O)c1cccc(-n2nc(-c3ccccc3O)nc2-c2ccccc2O)c1 | Kd: 0.063

Item: Oc1ccccc1-c1n[nH]c(-c2ccccc2O)n1 | Kd: 0.032
